tested-on: T1, human PCSK9 (PCSK9 antigen, SEQ ID NO. 53) (human, UniProt A8T644 31-152; Q8NBP7 153-692, Biotin-labelled on amines in the MSD-SET and sorting experiments; positions not given.)
T1 construct: Biotin-labelled in MSD-SET; also called PCSK9-WT; PCSK9 protein
experiment: flow cytometry, PCSK9 left on CHO-LDLR cells (anti-His-FITC) after premix with 1000 nM antibody
quantity-kind: Fluorescence Signal Value

Solved cases below.
{"columns": ["binder", "Fluorescence Signal Value"],
 "data": [
  ["ADI-10089 (antibody, human IgG2, kappa, V domains shown, IgG) VH: QLQLQESGPGLVKPSETLSLTCTVSGGSIGSSSYYWTWIRQPPGKGLEWIGSINYRGSTYYNPSLKSRVTISVDTSKNQFSLKLSSVTAADTAVYYCARENSGVVPAAGPNWFDPWGQGTLVTVSS VL: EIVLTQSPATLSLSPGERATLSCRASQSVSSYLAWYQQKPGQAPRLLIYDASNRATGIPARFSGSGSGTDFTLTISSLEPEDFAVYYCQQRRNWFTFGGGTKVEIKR", 5330],
  ["Evolocumab (antibody, V domains shown) VH: QVQLVQSGAEVKKPGASVKVSCKASGYTLTSYGISWVRQAPGQGLEWMGWVSFYNGNTNYAQKLQGRGTMTTDPSTSTAYMELRSLRSDDTAVYYCARGYGMDVWGQGTTVTVSS VL: QSALTQPASVSGSPGQSITISCTGTSSDVGGYNSVSWYQQHPGKAPKLMIYEVSNRPSGVSNRFSGSKSGNTASLTISGLQAEDEADYYCNSYTSTSMVFGGGTKLTVL", 4800]
]}

Now examine the next entry.
# lookup: Fluorescence Signal Value of Bococizumab (antibody, V domains shown) VH: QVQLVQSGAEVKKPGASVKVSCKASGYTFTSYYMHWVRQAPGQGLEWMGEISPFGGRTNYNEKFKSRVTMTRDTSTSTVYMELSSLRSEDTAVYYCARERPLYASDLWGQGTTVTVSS VL: DIQMTQSPSSLSASVGDRVTITCRASQGISSALAWYQQKPGKAPKLLIYSASYRYTGVPSRFSGSGSGTDFTFTISSLQPEDIATYYCQQRYSLWRTFGQGTKLEIK
6040

The measurements presented in this section are drawn from patent US20200087416A1.
